Tested on: HCT-15 colon
method notes: NCI tumour cell line growth inhibition, 48 h
Where a SMILES comes first, the peptide text is derived from it. The star is where a group is joined. Cbz = O=C(OCc1ccccc1)*
Give measured TGI for each item. Keep answers brief.

Prompt: Suppose we examine the molecule CCOC(=O)c1nc2cc(F)c(N3CCOCC3)cc2[nH]c1=O ; what TGI value has been reported?
Response: > 100 µM

Prompt: Suppose we examine the molecule CC(C)=CC1CC(=[N+]=[N-])C(=O)C1(C)C (stereo not given) ; what TGI value has been reported?
Response: > 100 µM

Prompt: Suppose we examine the molecule CN1CC[C@@H](c2c(O)cc(O)c3c(=O)cc(-c4ccc(C(F)(F)F)cc4Cl)oc23)[C@@H]1CO ; what TGI value has been reported?
Response: 78.2 µM

Prompt: Suppose we examine the molecule CN(C)c1ncnc2c1ncn2CCn1cnc2c(N(C)C)ncnc21 ; what TGI value has been reported?
Response: > 100 µM

Prompt: Suppose we examine the molecule FC(F)(F)c1ccc2c(c1)nc(-c1ccc(Cl)cc1)n2CC1CCCN2CCCCC12 (stereo not given) ; what TGI value has been reported?
Response: 28.8 µM

Prompt: Suppose we examine the molecule O=C(Nc1cc(C(F)(F)F)ccc1Cl)c1cccc(NC2=C(Cl)C(=O)N(Cc3ccccc3)C2=O)c1 ; what TGI value has been reported?
Response: > 100 µM

Prompt: Suppose we examine the molecule COc1cccc2nc3c(C(=O)NCCN(C)C)cccc3cc12 ; what TGI value has been reported?
Response: 11.2 µM

Prompt: Suppose we examine the molecule CCc1c(Cl)c(C)cc(O)c1Cl ; what TGI value has been reported?
Response: 38.9 µM

Prompt: Suppose we examine the molecule CCOC(=O)/C=C(/C(=O)OCC)n1cnc2c(=O)[nH]c(NC(C)=O)nc21 ; what TGI value has been reported?
Response: > 100 µM

Prompt: Suppose we examine the molecule CC(NC(=O)C(NC(=O)OCc1ccccc1)C(C)C)C(=O)NCC(=O)O (stereo not drawn) (Cbz-Val-Ala-Gly-OH; configuration not given here) ; what TGI value has been reported?
Response: > 100 µM

Prompt: Suppose we examine the molecule Cc1cc(C(F)(F)F)cc(-n2nc(NS(=O)(=O)c3cc(C)c(Cl)cc3S)nc2N)n1 ; what TGI value has been reported?
Response: > 100 µM

Prompt: Suppose we examine the molecule CSc1nc(NC2OC(COC(C)=O)C(OC(C)=O)C(OC(C)=O)C2OC(C)=O)c(N=CC=Nc2c(NC3OC(COC(C)=O)C(OC(C)=O)C(OC(C)=O)C3OC(C)=O)nc(SC)n(C)c2=O)c(=O)n1C (stereo not given) ; what TGI value has been reported?
Response: > 100 µM

Prompt: Suppose we examine the molecule CN(C)CCSc1cc(-c2ccccc2)c2ccccc2n1 ; what TGI value has been reported?
Response: 14.6 µM

Prompt: Suppose we examine the molecule Cc1nc2ccc(F)cc2c2c1CCN2c1ccc(Cl)cc1 ; what TGI value has been reported?
Response: > 100 µM

Prompt: Suppose we examine the molecule O=c1[nH]c2ccc(O)cc2o1 ; what TGI value has been reported?
Response: > 100 µM

Prompt: Suppose we examine the molecule Cc1cccc2c1Sc1ccccc1C2NC(=O)CCN(C)C (stereo not given) ; what TGI value has been reported?
Response: > 100 µM

Prompt: Suppose we examine the molecule S=c1[nH]c2c(Cl)c(Cl)c(Cl)c(Cl)c2[nH]1 ; what TGI value has been reported?
Response: 53.5 µM

Prompt: Suppose we examine the molecule CCCCCCCN=C(N)c1ccc(N2CCN(c3ccc(C(N)=NCCCCCCC)cc3)CC2)cc1 ; what TGI value has been reported?
Response: > 61.9 µM

Prompt: Suppose we examine the molecule CC1CCN(C(=O)OCc2nc3nc(Cl)nc(N4CCOCC4)c3[nH]2)CC1 ; what TGI value has been reported?
Response: 2.22 µM

Prompt: Suppose we examine the molecule O=C1c2ccccc2C(=O)c2c1nc1ccccc1c2-c1cncc(-c2c3c(nc4ccccc24)C(=O)c2ccccc2C3=O)c1 ; what TGI value has been reported?
Response: 9.34 µM
